Assay target: recombinant human estrogen receptor-α (ER-α) (Homo sapiens)
Sequence (P03372 1-595): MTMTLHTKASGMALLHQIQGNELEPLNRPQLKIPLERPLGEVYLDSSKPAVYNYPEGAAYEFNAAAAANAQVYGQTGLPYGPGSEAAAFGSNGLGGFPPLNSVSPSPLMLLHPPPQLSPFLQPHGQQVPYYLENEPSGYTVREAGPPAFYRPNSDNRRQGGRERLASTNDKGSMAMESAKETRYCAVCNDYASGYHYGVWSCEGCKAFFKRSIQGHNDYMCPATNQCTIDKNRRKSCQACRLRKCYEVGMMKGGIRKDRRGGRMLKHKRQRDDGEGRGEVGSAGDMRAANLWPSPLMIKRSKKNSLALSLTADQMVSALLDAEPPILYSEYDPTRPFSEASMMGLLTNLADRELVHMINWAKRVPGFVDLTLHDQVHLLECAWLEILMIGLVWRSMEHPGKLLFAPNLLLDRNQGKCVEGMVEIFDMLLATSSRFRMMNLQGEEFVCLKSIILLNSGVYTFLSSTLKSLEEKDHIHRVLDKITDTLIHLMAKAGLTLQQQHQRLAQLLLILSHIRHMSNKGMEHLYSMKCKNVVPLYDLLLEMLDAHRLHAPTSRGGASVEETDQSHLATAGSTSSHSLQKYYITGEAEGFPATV
Format: binding
Condition summary: at 100 μM compound
Outcome measure: ER-α percent competition (% competition)

CC/C(=C(/c1ccc(O)cc1)c1ccc(OC(=O)C(C)(C)C)cc1)c1ccccc1    68
CCC(=C(c1ccc(O)cc1)c1ccc(O)cc1)c1ccccc1    80
CC/C(=C(/c1ccc(OCC(N)=O)cc1)c1ccc(OC(=O)C(C)(C)C)cc1)c1ccccc1    56
CC/C(=C(\c1ccc(O)cc1)c1ccc(OCC(N)=O)cc1)c1ccccc1    57
